Recorded values, source ChEMBL document CHEMBL2016515.

target: Gamma-secretase; test: Inhibition of gamma secretase-mediated amyloid beta42 production in human SH-SY5Y cells overexpressing beta-APP C-terminal SPA4CT by electrochemiluminescent analysis; format: cell-based
measurementLabel: pIC50
Schema: pIC50 number; meaning minus log10 of the concentration expressed in molar units.

Look up pIC50 of "COc1cc(-c2cn(CC(=O)N(CC(F)(F)F)c3ccc4c(c3)OC(F)(F)O4)nn2)ccc1-n1cnc(C)c1" and report it.
6.80

For "COc1cc(-c2cn(CC(=O)N(Cc3ccccc3)Cc3ccccc3)nn2)ccc1-n1cnc(C)c1" , write its pIC50.
6.43

Identify the reported pIC50 for the following entry. COc1cc(-c2cn(C3C(=O)NC4CCC3C4)nn2)ccc1-n1cnc(C)c1 (racemic)
5.96

Name the recorded pIC50 of the item "COc1cc(-c2cn([C@H]3C[C@@H](C(F)(F)F)CCN(CC(F)(F)F)C3=O)nn2)ccc1-n1cnc(C)c1" in your answer.
7.70
